B1: FBXO39 (parent)
chain: PSRVHASEVESAVWYVKKFGRYLE

- Variants of: B1
- procedureSummary: protein stability index of a GFP-peptide fusion (GPS, HEK-293T) (PSI 1-6); higher = more stable;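 further: lentivirally expressed fusions sorted by FACS into six bins by GFP to DsRed ratio, PSI derived from sequencing read proportions per bin multiplied by bin number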
- conditionDetails: c terminus: a fixed tail appended

seq | protein stability index
PSRVHASEVESAVWYVKKFGPYLE [R21P] | 1.98
PSRVSASEVESAVWYVKKFGRYLE [H5S] | 2.05
PSRVHASEVESKVWYVKKFGRYLE [A12K] | 2

Provenance of the data: the supplement of paper PMC10567573
